Test: NCI Yeast Anticancer Drug Screen. Data for the cln2 rad14 strain (AID 165);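 further: 0% = growth equal to vehicle treated cultures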
Settings: S. cerevisiae cln2 rad14 strain, at 50.0 µM, stronger effect = higher value
Method: Growth inhibition of yeast strains with defined genetic alterations is measured as a screen for potential anti-cancer activity. Selected strains with alterations in DNA damage repair or cell cycle control were exposed to compounds and growth inhibition was measured relative to vehicle treated controls. The strain used in this assay is cln2 rad14
The panel holds about 79,000 compounds, 15% with a hit somewhere; the sample as a whole holds those more often.
# growth inhibition per record follows
A number alone suffices; assume %.

compound	value-type	readout-value
O=C(O)c1ccc2ccc(F)cc2c1Cc1ccccc1	growth inhibition	8.3
C=C1C(=O)O[C@@H]2C3=C(C)C(=O)C=C[C@]3(C)CC[C@@H]12	growth inhibition	0.8
O=c1[nH]c2ccccc2nc1/C=C/n1c(=S)[nH]c2ccccc21	growth inhibition	-16.6
CC(=O)CC(=O)NCCCc1ccccc1	growth inhibition	3.5

Lookup: Recall and state the measured growth inhibition for NC(=O)CCCC(C(N)=O)(c1ccccc1)c1ccccc1 .
Found: -11.2

Lookup: Give growth inhibition for the following compound: C(CCN1CCOCC1)CN1CCOCC1
Found: -4.1

Lookup: Give the value of growth inhibition reported for the following: CC1(C)C(CCO)CC1CCO (centres undefined)
Found: -0.45

Lookup: Consider the compound Cc1cc(C)c(NC(=O)Nc2cccc(Cl)c2)c(C)c1 . State its measured growth inhibition.
Found: -4

Lookup: Provide measured growth inhibition value, entry: O=C1c2ccccc2CC1(c1ccccc1)c1ccccc1
Found: 10.5
